// provenance: paper PMC7826789

Tested on: CDK4-cyclinD1;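 further: KINOMEscan scanMAX binding as percent activity remaining versus control; lower means stronger binding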
Conditions: Compound Concentration (nM):1000
Everything with Percent Control lower than 90% is NO; everything else, including exactly 90%, is YES.

Please review the entries below; each comes with its answer.
Cl.c1ccc(Cc2nc3ccc(Nc4ncnc5ccccc45)cc3[nH]2)cc1 [GR269666A]    YES
COc1cccc(-c2c[nH]c3c(N/N=C/c4ccncc4)ncnc23)c1 [GW814408X]    NO
Cl.O=C(Nc1ccc(Oc2ccc3[nH]c(NC(=O)c4ccco4)nc3c2)cc1)Nc1cc(C(F)(F)F)ccc1F [GW683134A]    YES
CCS(=O)(=O)c1ccc(OC)c(Nc2ncc(-c3cccc(OC)c3)o2)c1 [GW580509X]    YES
COC(=O)Nc1nc2ccc(Oc3ccc(NC(=O)Nc4cc(C(F)(F)F)ccc4F)cc3)cc2s1.Cl [GW693917A]    YES

Is the recorded value of Percent Control equal to or greater than 90% for this compound? Nc1ncnc2occ(-c3ccc(NC(=O)Nc4cc(C(F)(F)F)ccc4F)cc3)c12 [GW770249X]
YES

Please indicate if the recorded Percent Control for COc1ccc2[nH]c3c4[nH]c5ccc(OC)cc5c4c4c(c3c2c1)C(=O)NC4=O [GW296115X] meets or exceeds 90%.
NO

# bool: Percent Control of C[C@@H](Oc1cc(-n2cnc3ccc(OC4CCN(C)CC4)cc32)sc1C(N)=O)c1ccccc1Cl [GSK579289A] >= 90%
YES

In plain terms: is recorded Percent Control at least 90% for CC(C)COC(=O)c1ccc2c(c1)/C(=C/Nc1ccc(S(N)(=O)=O)cc1)C(=O)N2 [GW416981X] ?
NO

Please tell me: is the compound COc1cccc(-n2ncc3c(N/N=C/c4ccncc4)ncnc32)c1 [GW784752X] at or over 90% in terms of Percent Control?
NO

# check: Percent Control of CCn1c(-c2nonc2N)nc2c(C#CC(C)(C)O)nc(OCCNC)cc21.Cl is greater than or equal to 90%
YES

Has COc1ccc(COc2ccc(Cc3cnc(N)nc3N)cc2OC)cc1 [GW632580X] a recorded Percent Control greater than or equal to 90%?
YES

Hi, just wondering whether CCc1ccc(Oc2nccc(-c3c(-c4ccc(F)cc4)ncn3C3CCNCC3)n2)cc1 shows Percent Control of 90% or higher.
YES

Reported Percent Control reaches at least 90% for CC1=C(C(=O)Nc2ccc3[nH]ncc3c2)C(c2ccc3ccccc3c2)CC(=O)N1 (stereo not shown) [GSK270822A] ?
NO

State whether the measured Percent Control reaches 90%, counting equality as reaching it, for C/C(Nc1ccc(S(N)(=O)=O)cc1)=C1/C(=O)Nc2ccccc21 [GW335962X]
NO

Form field: Percent Control at least 90%? Entry: COc1ccc2cc(-c3c(-c4ccncc4)nc(-c4ccc(S(C)(=O)=O)cc4C)n3C)ccc2c1
NO

Textbook exercise: given the entry COc1cc2ncnc(Nc3ccc4c(cnn4Cc4ccccc4)c3)c2cc1OC.Cl [GW282449A] , state whether its Percent Control is greater than or equal to 90%.
YES

Threshold query (Percent Control >= 90%) on CN(C)c1cc2c(Nc3ccc4c(cnn4Cc4ccccc4)c3)ncnc2cn1 [GW282974X]
NO

Percent Control >= 90% for CCS(=O)(=O)c1ccc(OC)c(Nc2ncc(-c3cccc(F)c3)o2)c1 [GW621970X] ?
YES
